study system: T1, factor VIIIa A1/A3C1C2 dimer, wild type (human, UniProt P00451 20-391; P00451 1709-2351)
T1 sequence 1: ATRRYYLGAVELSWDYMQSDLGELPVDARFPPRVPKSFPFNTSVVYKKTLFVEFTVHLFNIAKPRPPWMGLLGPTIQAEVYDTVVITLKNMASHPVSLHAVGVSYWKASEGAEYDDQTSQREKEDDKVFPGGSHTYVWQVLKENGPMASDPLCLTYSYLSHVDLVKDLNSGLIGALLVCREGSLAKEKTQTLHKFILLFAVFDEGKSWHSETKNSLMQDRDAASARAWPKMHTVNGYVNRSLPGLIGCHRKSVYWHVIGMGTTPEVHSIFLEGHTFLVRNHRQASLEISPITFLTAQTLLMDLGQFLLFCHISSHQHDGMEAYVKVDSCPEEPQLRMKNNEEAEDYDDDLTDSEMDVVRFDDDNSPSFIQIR
T1 sequence 2: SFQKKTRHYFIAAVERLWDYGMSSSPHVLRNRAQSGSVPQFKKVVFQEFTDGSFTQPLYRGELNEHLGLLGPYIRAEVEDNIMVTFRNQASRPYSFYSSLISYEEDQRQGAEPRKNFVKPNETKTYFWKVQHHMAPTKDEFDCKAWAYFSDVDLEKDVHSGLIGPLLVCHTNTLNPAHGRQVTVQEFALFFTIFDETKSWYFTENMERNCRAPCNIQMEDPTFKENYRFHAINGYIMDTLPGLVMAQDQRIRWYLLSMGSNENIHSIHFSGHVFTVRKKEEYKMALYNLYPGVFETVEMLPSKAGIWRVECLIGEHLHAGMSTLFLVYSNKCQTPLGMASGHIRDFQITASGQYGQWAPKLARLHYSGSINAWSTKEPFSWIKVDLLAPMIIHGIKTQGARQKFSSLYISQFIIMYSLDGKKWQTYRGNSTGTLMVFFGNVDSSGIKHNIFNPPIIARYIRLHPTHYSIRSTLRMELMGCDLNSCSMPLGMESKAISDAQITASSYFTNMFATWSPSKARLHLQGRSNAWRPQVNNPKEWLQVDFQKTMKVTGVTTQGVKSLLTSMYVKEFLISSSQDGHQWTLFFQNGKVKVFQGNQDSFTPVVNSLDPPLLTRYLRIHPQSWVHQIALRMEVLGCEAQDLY
test description: cell-based or functional assay
recorded metric: Decay rate, Factor VIIIa (1.5 nM factor VIIIa, factor IXa absent) (min⁻¹)

>  <binder>
factor VIIIa A2 subunit, wild type (other) SVAKKHPKTWVHYIAAEEEDWDYAPLVLAPDDRSYKSQYLNNGPQRIGRKYKKVRFMAYTDETFKTREAIQHESGILGPLLYGEVGDTLLIIFKNQASRPYNIYPHGITDVRPLYSRRLPKGVKHLKDFPILPGEIFKYKWTVTVEDGPTKSDPRCLTRYYSSFVNMERDLASGLIGPLLICYKESVDQRGNQIMSDKRNVILFSVFDENRSWYLTENIQRFLPNPAGVQLEDPEFQASNIMHSINGYVFDSLQLSVCLHEVAYWYILSIGAQTDFLSVFFSGYTFKHKMVYEDTLTLFPFSGETVFMSMENPGLWILGCHNSDFRNRGMTALLKVSSCDKNTGDYYEDSYEDISAYLLSKNNAIEPR

>  <meas value>
0.14

$$$$
>  <binder>
factor VIIIa A2 subunit, Glu665Val (other) SVAKKHPKTWVHYIAAEEEDWDYAPLVLAPDDRSYKSQYLNNGPQRIGRKYKKVRFMAYTDETFKTREAIQHESGILGPLLYGEVGDTLLIIFKNQASRPYNIYPHGITDVRPLYSRRLPKGVKHLKDFPILPGEIFKYKWTVTVEDGPTKSDPRCLTRYYSSFVNMERDLASGLIGPLLICYKESVDQRGNQIMSDKRNVILFSVFDENRSWYLTENIQRFLPNPAGVQLEDPEFQASNIMHSINGYVFDSLQLSVCLHEVAYWYILSIGAQTDFLSVFFSGYTFKHKMVYVDTLTLFPFSGETVFMSMENPGLWILGCHNSDFRNRGMTALLKVSSCDKNTGDYYEDSYEDISAYLLSKNNAIEPR

>  <meas value>
0.0395

$$$$
